Tested on: Saccharomyces cerevisiae
Experiment: protein stability index of tFT-peptide fusion (C-terminal peptide) (PSI (0-1 scale)); higher = more stable (slower turnover);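 further: PSI is a weighted mean of sequencing reads over stability bins, variants kept only with over 10 reads, mCherry proximal and sfGFP distal, peptide attached via GGGS linker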
Details: genetic background: wild type; temperature: 30 C
Parameter: protein stability index. Scope: all listed entries.
Output: the number by itself.

Solved cases (5 shown):
{"columns": ["item sequence", "system under test", "protein stability index"],
 "data": [
  ["EQRRAGPAEVTK", "Saccharomyces cerevisiae", 0.694],
  ["NIMSSFFLTFHR", "Saccharomyces cerevisiae", 0.719],
  ["RSRLSEAEEYGR", "Saccharomyces cerevisiae", 0.71],
  ["RFVGVGWRVEGG", "Saccharomyces cerevisiae", 0.676],
  ["RYSPFSFLASLP", "Saccharomyces cerevisiae", 0.732]
]}

// next item, protein stability index requested
(Q) Write down measured protein stability index (Saccharomyces cerevisiae) for this sequence. KKKKIKKKTKKE
(A) 0.667

###

Test system: Saccharomyces cerevisiae
Assay: protein stability index of tFT-peptide fusion (C-terminal peptide) (PSI (0-1 scale)); higher = more stable (slower turnover)
Details: genetic background: wild type; temperature: 37 C
Parameter: protein stability index. Scope: all listed entries.
Output: the number by itself.

Solved cases (5 shown):
{"columns": ["item sequence", "protein stability index"],
 "data": [
  ["LKKTLNGRRKMI", 0.373],
  ["VVCLLGIFYGFC", 0.51],
  ["CWYRAVSIQYVL", 0.412],
  ["CRLFFVFVFFWW", 0.274],
  ["GCLGYTLSCFTY", 0.643]
]}

(Q) Please give measured protein stability index of the following entry: VHGWRPLLFHTR
(A) 0.699

(Q) Please give measured protein stability index of the following entry: QITIYPIPLARF
(A) 0.892

###

Parameter: protein stability index. Scope: all listed entries.
Test system: Saccharomyces cerevisiae
Experiment: protein stability index of tFT-peptide fusion (C-terminal peptide) (PSI (0-1 scale)); higher = more stable (slower turnover)
Details: genetic background: das1 deletion; temperature: 37 C
Output: the number by itself.

{"columns": ["item sequence", "protein stability index"],
 "data": [
  ["IVLCVFTVDSDF", 0.544]
]}

(Q) Please give measured protein stability index of the following entry: GAICCFCCYLVF
(A) 0.626

(Q) Please give measured protein stability index of the following entry: PCVPRLLPLQLS
(A) 0.758

(Q) Please give measured protein stability index of the following entry: GLRFFVSSLLCR
(A) 0.565

(Q) Please give measured protein stability index of the following entry: VFVMVLCALFYF
(A) 0.38

(Q) Please give measured protein stability index of the following entry: FCTVYFVCVWEM
(A) 0.393

(Q) Please give measured protein stability index of the following entry: PLRVFFLVAFCL
(A) 0.535

(Q) Please give measured protein stability index of the following entry: HRNILSIIIKNL
(A) 0.685

(Q) Please give measured protein stability index of the following entry: CLQYRACLILLT
(A) 0.494

(Q) Please give measured protein stability index of the following entry: DHSWGGLLICTC
(A) 0.546

###

Parameter: protein stability index. Scope: all listed entries.
Tested on: Saccharomyces cerevisiae
Assay: protein stability index of tFT-peptide fusion (C-terminal peptide) (PSI (0-1 scale)); higher = more stable (slower turnover)
Conditions: genetic background: wild type; temperature: 30 C

Solved cases (5 shown):
{"columns": ["item sequence", "endpoint value"],
 "data": [
  ["GVRNGFMSVSLY", 0.651],
  ["PPNPPPNPPSRY", 0.738],
  ["CSVGLPPLPPLH", 0.704],
  ["SYFVIPGLSLSV", 0.568],
  ["PRPPSPPPPSPA", 0.808]
]}

(Q) Please give measured protein stability index of the following entry: ACPGGPFALRSH
(A) 0.666

(Q) Please give measured protein stability index of the following entry: VVVGGVWIRRVW
(A) 0.654

(Q) Please give measured protein stability index of the following entry: TRIGNGHPLGCG
(A) 0.718

(Q) Please give measured protein stability index of the following entry: THHSDLHPRTAP
(A) 0.697

(Q) Please give measured protein stability index of the following entry: GLRFFVSSLLCR
(A) 0.508

(Q) Please give measured protein stability index of the following entry: TASFVSSGLLAF
(A) 0.586

(Q) Please give measured protein stability index of the following entry: VEEKDNNVRYVL
(A) 0.697

(Q) Please give measured protein stability index of the following entry: GGPNKRTGVWGR
(A) 0.657
